Tested on: QT interval
PROTOCOL_SUMMARY: class III antiarrhythmic action in guinea-pigs after intravenous administration (increase in QT interval, ECG)
Type: in vivo, guinea-pigs (Pirbright white)
CONDITION_INFO: Cavia porcellus, iv; anaesthetized guinea-pigs (urethane 1.5 g/kg i.p.), i.v., ECG extremity lead II, 4 to 6 animals per dose; dose for 20% increase in QT interval, calculated from log dose-response; read-out: Increase in QT interval ED 20%
Structures can show the parent of a compound that is named as a salt.
The following compounds are listed with their measured ED20 values.
ENDPOINT_NAME: ED20

| COMPOUND | EXPERIMENTAL_RESULT |
| --- | --- |
| Cc1ccccc1/C=C/C(=O)c1cc(C)c(OCCN2CCCCC2)c(C)c1.O=C(O)/C=C/C(=O)O [Example 2] | 0.76 mg/kg |
| Cc1ccccc1/C=C/C(=O)c1cc(C)c(OCCN2CCCC2)c(C)c1 [Example 1] | 0.74 mg/kg |
| CCN(CC)CCOc1c(C)cc(C(=O)/C=C/c2ccccc2C)cc1C.O=C(O)/C=C/C(=O)O [Example 3] | 0.65 mg/kg |
| CCN(CC)CCOc1c(C)cc(C(=O)Cc2ccc(OC)cc2)cc1C [Example 10] | 1.31 mg/kg |
| COc1ccccc1CCC(=O)c1cc(C)c(OCCN2CCCCC2)c(C)c1 [Example 27] | 1.2 mg/kg |
| Cc1ccccc1CCC(=O)c1cc(C)c(OCCN2CCCC2)c(C)c1 [Example 25, fumarate] | 0.79 mg/kg |
| CCc1ccccc1C=CC(=O)c1cc(C)c(OCCN2CCCC2)c(C)c1 [Example 12] | 0.74 mg/kg |

---

Tested on: QT interval
PROTOCOL_SUMMARY: class III antiarrhythmic action in guinea-pigs after intravenous administration (increase in QT interval, ECG)
Assay type: in vivo, guinea-pigs (Pirbright white)
CONDITION_INFO: guinea-pigs, i.v.; potency relative to D-sotalol = 1
Rel. action ED20 (D-sotalol)/ED20 (example) less than 3 is condition met; Rel. action ED20 (D-sotalol)/ED20 (example) greater than or equal to 3 is condition not met.

| CHEM_SMILES | CATEGORY_LABEL |
| --- | --- |
| COc1ccc(/C=C/C(=O)c2cc(C)c(OCCN3CCCCC3)c(C)c2)c(C)c1.O=C(O)/C=C/C(=O)O | condition not met |
| CCN(CC)CCOc1c(C)cc(C(=O)/C=C/c2ccccc2C)cc1C.O=C(O)/C=C/C(=O)O | condition not met |
| CCc1ccccc1CCC(=O)c1cc(C)c(OCCN2CCCCC2)c(C)c1 | condition met |
| CCN(CC)CCOc1c(C)cc(C(=O)Cc2ccc(OC)cc2)cc1C | condition met |
| Cc1ccccc1/C=C/C(=O)c1cc(C)c(OCCCN2CCCC2)c(C)c1.O=C(O)/C=C/C(=O)O | condition not met |
